# target desc: Pantothenate synthetase (Mycobacterium tuberculosis (strain ATCC 25618 / H37Rv)) (UniProt P9WIL5)
# Sequence (P9WIL5 whole entry, looked up): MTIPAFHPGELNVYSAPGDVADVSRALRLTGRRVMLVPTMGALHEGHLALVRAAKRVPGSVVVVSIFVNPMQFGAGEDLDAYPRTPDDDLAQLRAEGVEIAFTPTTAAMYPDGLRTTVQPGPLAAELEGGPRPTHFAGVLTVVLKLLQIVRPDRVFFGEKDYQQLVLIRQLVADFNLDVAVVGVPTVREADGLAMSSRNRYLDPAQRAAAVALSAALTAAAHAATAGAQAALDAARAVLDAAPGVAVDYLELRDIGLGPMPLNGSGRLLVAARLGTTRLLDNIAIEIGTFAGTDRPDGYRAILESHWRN
# assay remarks: Coupled enzyme confirmation of inhibitors against recombinant Mtb PanC (AID 375);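 also: 0% = full reaction with vehicle and 100% = no enzyme background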
# measurement conditions: coupled enzyme assay; at 10 µM, stronger effect = higher value
Please use true (1) whenever inhibition is not below 2%, and false (0) whenever it is.

molecule	answer label
COc1cccc(NC(=O)CSc2nnnn2C(C)C)c1	true (1)
COc1ccccc1NS(=O)(=O)c1ccc(OC)c(OC)c1	true (1)
Cc1ccc(CN2C(=O)CCC2C(=O)NCCCN2CCC(C)CC2)cc1 (stereo unspecified)	true (1)
CCC(C)(NC(=O)c1ccc(=O)[nH]c1)C(=O)NC1CCCC1 (stereo unspecified)	false (0)
Cn1c(=O)cc(OCCCC(=O)N2CCCCC2)c2ccccc21	false (0)
COc1cccc(-n2c(C)nc3c(cnn3-c3ccc(Cl)cc3)c2=O)c1	true (1)
Cc1ccc(-c2nn3c(C)nnc3s2)cc1N	false (0)
c1ccc(OCCOc2ncnc3sccc23)cc1	false (0)
N=c1c(C(=O)NCc2ccccc2)cc2c(=O)n3ccccc3nc2n1Cc1ccco1	false (0)

* * *

# target desc: Pantothenate synthetase (Mycobacterium tuberculosis (strain ATCC 25618 / H37Rv)) (UniProt P9WIL5)
# assay remarks: Coupled enzyme confirmation of inhibitors against recombinant Mtb PanC (AID 375);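 also: 0% = full reaction with vehicle and 100% = no enzyme background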
# measurement conditions: coupled enzyme assay; at 10 µM, stronger effect = higher value
inhibition: recorded values
parameter: inhibition (%)

molecule	test result
O=C(CCN1C(=O)COc2ccccc21)NCCN1CCN(c2cccc(Cl)c2)CC1	0
CCSc1nc(O)c(C2OC(=O)c3c2ccc(OC)c3OC)c(=O)n1-c1ccccc1 (centres undefined)	0
COCCN(C(=O)Cn1nnc2ccccc21)C(C(=O)NC1CCCC1)c1cc(OC)ccc1OC (centres undefined)	6
O=C1CCc2cc(OCCCCc3nnnn3C3CCCCC3)ccc2N1	3
CCn1c(SCc2cccc(C(F)(F)F)c2)nnc1-c1ccco1	0
COC(=O)c1ccccc1NC(=O)C1CCN(S(=O)(=O)c2cc(C)ccc2OC)CC1	0
COCC(=O)NC(c1ccccc1)c1ccccc1	7
CCOc1ccc2nc(SCC(=O)N3CCCCCC3)c(C#N)cc2c1	0
O=c1[nH]c2cccnc2n1Cc1ccco1	0
Cc1c(Br)c(C(F)(F)F)nn1CC(=O)NCCN1CCOCC1	0
O=C(C1CCCO1)N1CCc2ccccc21 (centres undefined)	10
CC1Cc2ccccc2N1C(=O)c1cnsn1 (centres undefined)	0
COc1cccc(NC(=O)COc2ccccc2C(N)=O)c1	0
CN1Cc2c(N)cccc2C(c2ccccc2)C1 (centres undefined)	0
O=C(CSc1nnc(-c2cccnc2)o1)Nc1ccccn1	0
CCCOC(=O)C1[C@H]2C(=O)N(CCCOC)C[C@]23C=C[C@H]1O3 (some centres undefined)	0
CCOC(=O)N1CCC(N2C(=O)c3ccccc3C2Nc2cc(Cl)c(OC)cc2OC)CC1 (centres undefined)	0
O=c1ccn(Cc2ccccc2Cl)cc1	0
COC(=O)Nc1ccc(S(=O)(=O)N2CCCCCC2)cc1	0
O=C1COc2ccc(C(=O)COC(=O)CCc3ccc(S(=O)(=O)N4CCOCC4)cc3)cc2N1	8
Cc1cc(NC(=O)Cn2cnc3c(cnn3C(C)(C)C)c2=O)no1	3
COc1ccccc1NC(=O)N(Cc1ccco1)Cc1cc2cccc(C)c2[nH]c1=O	2
CC(C)C(=O)Nc1ccc(-c2nc3cccnc3o2)cc1	2
CC1CN=C(N(C(=O)Nc2ccccc2)c2ccc(S(=O)(=O)N3CCOCC3)cc2)S1 (centres undefined)	0
